For each record, write down the corresponding apparent Kd.
Tested on: MS2 coat protein
Assay: apparent Kd, MS2 coat protein; higher = weaker binding; RNA-MaP array; theophylline 2 mM where present
Conditions: designed as: ON switch for theophylline; no ligand
The response must be a number in nM with no trailing unit.

The measured apparent Kd that UCGUGUAUUUCGGAUACCAGUGAAAUCGAUACAUGAGGAUCACCCAUGUGAGAGGAUGUACACCCUUGGCAGCUGUCUGUAUCUG showed for MS2 coat protein is 16.3

apparent Kd value, target or system MS2 coat protein, for AUAACAUGAGGAUCACCCAUGUAAGGUGAUACCAGACGAAGUAAAGUCCCUUGGCAGCACAAGCAUAGUUGCGAAUAUUGAUAGA : 469

# value of apparent Kd, MS2 coat protein, item UCUUUCUAUGUAGAUACCAGCAUGUUAUCUUUCUUUUGACAUGAGGAUCACCCAUGUAAAUGCCCUUGGCAGCUACAUUUUCUUU = 21.4

// assay MS2 coat protein, entry UAAAUAAUCUGGGUGUAGGUAAUAACAGAUACCAGCCAGAUAACUGGCCCUUGGCAGCUGAUAACAUGAGGAUCACCCAUGUAAA , apparent Kd value = 80.5

Here AUUUAUUGUCGUGAUACCAGACAUACAUGAGGAUCACCCAUGUUAAGUAACUUUUUUCAGGUCCCUUGGCAGCACUUUUUAAUUA was tested on MS2 coat protein, and its apparent Kd came to 17.3

The recorded apparent Kd with MS2 coat protein for AAUAACAUGAGGAUCACCCAUGUAAAAGAUACCAGAUGCAUGAUGAUCCCUUGGCAGCUUAAACGCGAUUGAUUACAAUCGCGAA was 34.4

GET /values?item= UGUAACAUGAGGAUCACCCAUGUGAGUGAUACCAGAUUAGUAGUAGUCCCUUGGCAGCAUAUUGGGCGAGUGUAUAGUCUAUGCG &system= MS2 coat protein returns apparent Kd: 165

Test item GCACGACAUGAGGAUCACCCAUGUGCAGAUACCAGUAAUGUAUAUUACCCUUGGCAGCUGAGUAGAUCUGGAGGGCUAUAGGUAA ; MS2 coat protein; reported apparent Kd was 13.8

###

Consider the following sequences; for each one, report its apparent Kd.
System: MS2 coat protein
Experiment: apparent Kd, MS2 coat protein; higher = weaker binding; RNA-MaP array
Conditions: designed as: OFF switch for flavin mononucleotide; no ligand
Give just the numeric value; µM need not be written.

What the record says about GCCUAGCUAGGAUAUACCAGAGUGUAUACUUAUGUGGAUCGACAUGAGGAUCACCCAUGUAGAAGGAGCAAGAU : apparent Kd is 0.0308

Field apparent Kd (entry UUAUUGGUAGGAUAUACAUGAGGAUCACCCAUGUGUCACGCAAAUUAGUAUGUCAAAUGUAGAAGGACCAAAUA ) reads 0.0205

Noted for GUUGAGGUGGUAGGAUAUAGUUUACACAUGAGGAUCACCCAUGUAUUCUAGACUUCAAGCCUCACCUAGAAGGACCCGUGCAAA : its apparent Kd reads 0.00491

Reported apparent Kd for CACAUGAGGAUCACCCAUGUUCGUUCACUUCAUGUAAUGAUUAGAAGGUCACGCGCCUAUCUGCUGAAGGAUAUAAUCCCGAAA was 0.0111

Note to self: apparent Kd recorded for GCAAUAACAGCAGGAUAUCGUCUCACAUGAGGAUCACCCAUGUUACUAAGUGGCUACUAGGAUUACGAGAAGGGCUGUCCACGC was 0.0107

Entry CGAAAACAUGAGGAUCACCCAUGUUAGGAUAUGAGGAUGGUAUAGUAUACGGUGUAGAUCAGAAGGAACGGUGG — recorded apparent Kd = 0.0114

The sequence listed as GUUAGCACUUAAGGAUAUUGGAAGCGCGUCGUCCAAGAAGGUAAGUUCUUCGUCGACAUGAGGAUCACCCAUGUCAUGCAUGGC has a reported apparent Kd of 0.0165

// field: apparent Kd; key: CUCGCAAAUGGAGGAUAUGCCGAGAUCCCUAUCCUCAGGACCUCCACAUGAGGAUCACCCAUGUUGCAGAAGGCCAGUGUGAAG ; value = 0.0144

sequence CACUGGUACGAGAAGGCACCUGAAGUUGAGAAGUGAGGAUAUCGAAAUAAACACAUGAGGAUCACCCAUGUGAUCCAAGGACGA , apparent Kd observed: 0.121

// field: apparent Kd; key: GACGUGUCGCAGAAGGUGGCGAGGAUAGACAUGAGGAUCACCCAUGUGGGACGCGUUAGGUCUGCCAAGGAUAUGCGCAACUCU ; value = 0.0543

The reported value for CAAGAGUUAGAAGGAUAUACAAGAUGCUGAAAGAAACGUGAACAAAACAUGAGGAUCACCCAUGUGAAGAAGGUCAAAUAGAAA in terms of apparent Kd is 0.0104

What the record says about GUAUACAUGAGGAUCACCCAUGUCGUUCUCUUGAGAUGAACAGAGGAUAUGUGAGUAAUAGCGUGACAGAAGGCUGGACAUGAU : apparent Kd is 0.0277

GET /value?item= GCAAGAGAGCAGAAGGUUGAGGGCGUUCCCGUUUACAUGAGGAUCACCCAUGUUGCUAACAUGUCAAAGGAUAUGCCUAACGCU &field=apparent Kd returns 0.0708

###

Test system: MS2 coat protein
Assay: apparent Kd, MS2 coat protein; higher = weaker binding; RNA-MaP array; FMN 200 µM where present
Details: designed as: OFF switch for flavin mononucleotide; no ligand
Decision: apparent Kd compared against 50 nM; not below it gives criterion met, below it gives criterion not met.

-- ask Threshold query (apparent Kd >= 50 nM) on AGGAUCCUAUCAAGACAAAUGUACAUGAGGAUCACCCAUGUGCAGGAUAUAGCUAGUUACGGUGGCUAGAAGGGCACACCAAAA
-- reply criterion not met

-- ask Please indicate if the recorded apparent Kd for CCUGUGUGAGGAUAUGUACUGCUCCUGUCCAACAGUGUAGAGCAGAAGGCACAUGAGGAUCACCCAUGUGAAAA meets or exceeds 50 nM.
-- reply criterion not met

-- ask Is it the case that CCUUGACAUGAGGAUCACCCAUGUGAGGAUAUAGAAUACUUCAUACACUGACCUCCUUCUAGAAGGCACAUCUC has apparent Kd reaching or exceeding 50 nM?
-- reply criterion not met

-- ask Does apparent Kd meet or surpass 50 nM for GGUUGGCGAGGAUAUACAUGAGGAUCACCCAUGUGGUCCUGUGGCUGAUCUUGCCUUUGUAGAAGGCGCAAAUC ?
-- reply criterion not met

-- ask Exam item: decide whether the reported apparent Kd for GGAUCGAGUGUGAGGAUAUGCUGGUCCUUGGAUCAGCAGAAGGCACAUGAGGAUCACCCAUGUGAAUACGGUCC is at least 50 nM.
-- reply criterion not met

-- ask Threshold query (apparent Kd >= 50 nM) on CCGCUGUUAGGAUAUCUGAAGCUUCAAUGGAAGUCUUCAUUGGAGAAGGGACAUGAGGAUCACCCAUGUAGGGA
-- reply criterion met

-- ask API: above_or_equal(metric=apparent Kd, cutoff=50 nM) for item GUCGGAUGUAUAGGAUAUCGACUGGAUAACAGUCGAGAAGGAUACAUGAGGAUCACCCAUGUAAUAAUAAUAAUAAUAACCGAC
-- reply criterion not met

-- ask Does the reported apparent Kd for UCCGUGGCAUCUCGCGCAUGUCUACAUGAGGAUCACCCAUGUCAGGAUAUACGGAUUGUCGUUCUGUAGAAGGGACAAGGGCUG fall at or above the 50 nM mark?
-- reply criterion met

-- ask Is apparent Kd for UACGCCUAGGAGAAGGGCCCACUAUAGGGUAAAUGCUGUUCUCACAUGAGGAUCACCCAUGUGCGGCAGGAUAUCCACGCGUAC at or above 50 nM?
-- reply criterion not met

-- ask # bool: apparent Kd of GUCAGCUCGUGAGGAUAUACAUGAGGAUCACCCAUGUGAUCAAUAGCAGCUUCGGCUGCAUACAUGUAGAAGGCACGAGCUGAU >= 50 nM
-- reply criterion not met

-- ask Hello, I need to know if ACACUACAUGAGGAUCACCCAUGUCAGGAUAUCGAUAUCACAACUCAUCAACCUCACUCGAGAAGGGACACAUA has measured apparent Kd not below 50 nM. Thanks!
-- reply criterion not met

-- ask Test whether the sequence UGUCGGAGCAGAGGAUAUUACAUGAGGAUCACCCAUGUAUGAACCAAUAGCUGGAAACAGCAAUGUGAGAAGGCUGCUCCGACA records apparent Kd of 50 nM or higher.
-- reply criterion not met

-- ask Reported apparent Kd reaches at least 50 nM for ACUCGGAGCUGGCGACAGAAGACAUGAGGAUCACCCAUGUAGAGAAGGAGCCCUGGGACCGGUGGCUAGGAUAUUUACAUCGGU ?
-- reply criterion not met

-- ask I'd appreciate it if you could say whether UUACUGUAAUAGAAGGGUAUUUGGGUAGUACAUGAGGAUCACCCAUGUUUUAUAGGAUAUGUUUAUAGUUUUUAAUCAAGUUUA has apparent Kd at least equal to 50 nM.
-- reply criterion met

-- ask // inclusive: apparent Kd at least 50 nM? input: UUGUGCUUAGAGAAGGUUCAAACUACAUAUUGCGCACAUGAGGAUCACCCAUGUUGGUGAAUAAGAAAGGAUAUUUGACUGUAC
-- reply criterion met

-- ask Is the recorded value of apparent Kd equal to or greater than 50 nM for this sequence? UGCUGGUGACAGCAUCCAUCAAAACAUGAGGAUCACCCAUGUAGAAGGCUGUACGGUUACCGUACAGAGGAUAUACAAUGAUGG
-- reply criterion not met

-- ask State whether the measured apparent Kd reaches 50 nM, counting equality as reaching it, for AAUUAUUUACAGAAGGAGUAAGAUUAUGUAUUACUAGGAUAUGUUCACAUGAGGAUCACCCAUGUACUAGUUGGUUUUUUAUGU
-- reply criterion not met

-- ask Hi team, for ACAAGGCAUGUAGGAUAUCCAUUGCGUCGCGAUGGAGAAGGACAACACACAUGAGGAUCACCCAUGUGAUCACCCAUGUCGUGU , is the recorded apparent Kd at or above 50 nM?
-- reply criterion met
